# measuredTarget: HCV polymerase (Hepatitis C virus genotype 1b, UniProt P26663)
# Construct: a region encoding NS5B (591 amino acids; J Virol 1991 Mar, 65(3), 1105-13) was amplified by PCR; 6 His (N); made in house; host or cells: Escherichia coli
# Sequence (P26663 2420-3010): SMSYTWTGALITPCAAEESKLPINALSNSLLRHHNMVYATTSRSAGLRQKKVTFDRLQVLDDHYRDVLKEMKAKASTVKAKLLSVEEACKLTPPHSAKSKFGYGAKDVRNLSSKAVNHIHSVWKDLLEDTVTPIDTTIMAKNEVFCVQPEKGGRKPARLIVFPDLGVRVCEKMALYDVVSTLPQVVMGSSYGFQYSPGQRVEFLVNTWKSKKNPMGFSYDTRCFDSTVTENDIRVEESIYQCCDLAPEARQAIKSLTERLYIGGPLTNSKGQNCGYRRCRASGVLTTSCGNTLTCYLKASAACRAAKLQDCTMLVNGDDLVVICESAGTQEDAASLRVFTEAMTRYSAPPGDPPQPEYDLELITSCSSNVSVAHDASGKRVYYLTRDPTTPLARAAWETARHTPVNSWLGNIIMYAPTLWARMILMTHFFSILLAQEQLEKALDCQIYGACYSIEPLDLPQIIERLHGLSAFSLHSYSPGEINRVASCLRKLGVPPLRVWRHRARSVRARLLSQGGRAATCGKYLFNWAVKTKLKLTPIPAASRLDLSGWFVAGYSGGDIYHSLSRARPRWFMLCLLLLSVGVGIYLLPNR
# testMethodNotes: biochemical
# testSettings: HCV polymerase inhibitory activity IC50
Where a name gives a salt, the structure may show the parent alone.

{"compound": "CN(C)C(=O)c1ccc(-c2ccc(Cl)cc2)c(COc2ccc(-c3nc4cc(C(=O)O)ccc4n3C3CCCCC3)cc2)c1 [Example 265, hydrochloride]", "IC50": "14 nM"}
{"compound": "O=C1CCN(C(=O)c2ccc(-c3ccc(Cl)cc3)c(COc3ccc(-c4nc5cc(C(=O)O)ccc5n4C4CCCCC4)cc3)c2)CC1 [Example 328, hydrochloride]", "IC50": "15 nM"}
{"compound": "CN(C)C(=O)c1ccc(-c2ccc(Cl)cc2)c(COc2ccc(-c3nc4cc(C(=O)O)ccc4n3C3CCCCC3)cc2)c1 [Example 232]", "IC50": "15 nM"}

---

# measuredTarget: HCV polymerase (Hepatitis C virus genotype 1b, UniProt P26663)
# Construct: a region encoding NS5B (591 amino acids; J Virol 1991 Mar, 65(3), 1105-13) was amplified by PCR; 6 His (N); made in house; host or cells: Escherichia coli
# testMethodNotes: biochemical
# testSettings: read-out: HCV polymerase inhibitory activity IC50
pIC50: −log10 of the molar value. Where a name gives a salt, the structure may show the parent alone.
molecules and their reported pIC50

{"molecule": "O=C(O)c1ccc2c(c1)nc(-c1ccc(OC(c3cccc(F)c3)c3cccc(F)c3)cc1F)n2C1CCCCC1", "pIC50": 7.38}
{"molecule": "O=C(O)c1ccc2c(c1)nc(-c1ccc(OCc3cc(C(=O)NC4CCC4)ccc3-c3ccc(Cl)cc3)cc1F)n2C1CCCCC1 [Example 378, hydrochloride]", "pIC50": 7.74}
{"molecule": "COc1ccc(COc2ccc(-c3nc4cc(C(=O)O)ccc4n3C3CCCC3)cc2)cc1", "pIC50": 6.36}
{"molecule": "CN(C)C(=O)c1ccc(-c2cccc(F)c2)c(COc2ccc(-c3nc4cc(C(=O)O)ccc4n3C3CCCCC3)cc2)c1 [Example 361, hydrochloride]", "pIC50": 7.55}
{"molecule": "O=C(O)c1ccc2c(c1)nc(-c1ccc(OCc3ncccc3-c3ccc(Cl)cc3)cc1)n2C1CCCCC1", "pIC50": 7.44}
{"molecule": "CC(C)(CO)NC(=O)c1ccc(-c2ccc(Cl)cc2)c(COc2ccc(-c3nc4cc(C(=O)O)ccc4n3C3CCCCC3)cc2)c1 [Example 352, hydrochloride]", "pIC50": 7.89}
{"molecule": "COCCOc1ccc(-c2ccc(Cl)cc2)c(COc2ccc(-c3nc4cc(C(=O)O)ccc4n3C3CCCCC3)cc2)c1 [Example 344, hydrochloride]", "pIC50": 7.80}
{"molecule": "COc1ccccc1Oc1ccc(-c2nc3cc(C(=O)O)ccc3n2C2CCCCC2)cc1", "pIC50": 6.68}
{"molecule": "O=C(O)c1ccc2c(c1)nc(-c1ccc(OCc3sc(C(=O)NCCO)nc3-c3ccc(F)cc3)cc1F)n2C1CCCCC1 [Example 430, hydrochloride]", "pIC50": 7.77}
{"molecule": "CCNC(=O)c1ccc(-c2ccc(Cl)cc2)c(COc2ccc(-c3nc4cc(C(=O)O)ccc4n3C3CCCCC3)c(F)c2)c1 [Example 390, hydrochloride]", "pIC50": 7.85}
{"molecule": "O=C(O)c1ccc2c(c1)nc(-c1ccc(OCc3cc(Cl)ccc3-c3cccs3)cc1)n2C1CCCCC1", "pIC50": 7.11}
{"molecule": "O=C(O)c1ccc2c(c1)nc(-c1ccc(OCc3cc(NC4=NCCO4)ccc3-c3ccc(Cl)cc3)cc1F)n2C1CCCCC1 [Example 425, dihydrochloride]", "pIC50": 7.59}
{"molecule": "CCCN(C(C)=O)c1ccc(-c2ccc(Cl)cc2)c(COc2ccc(-c3nc4cc(C(=O)O)ccc4n3C3CCCCC3)c(F)c2)c1 [Example 460, hydrochloride]", "pIC50": 7.77}
